EXPERIMENT_SUMMARY: Equilibrium solubility in vehicle
Assay type: physicochemical
REPORTED_CONDITIONS: aqueous buffer, thermodynamic from solid; 20 mM sodium phosphate dibasic with 125 mM sodium chloride; T72 hours; read-out: Equilibrium solubility, T72 hours Concentration
Classify by measured solubility thermodynamic at 72 h: Satisfied if it is equal to or exceeds 10 mg/mL, Not satisfied if it is smaller.

Observe how each entry below is paired with its result.
Is solubility thermodynamic at 72 h for CCCCC[C@H](O)CC[C@@H]1[C@H]2Cc3cccc(OCC(=O)O)c3C[C@H]2C[C@H]1OC(=O)OC [Prodrug III] at or above 10 mg/mL? Not satisfied

Is solubility thermodynamic at 72 h for CCCCC[C@@H](CC[C@@H]1[C@H]2Cc3cccc(OCC(=O)O)c3C[C@H]2C[C@H]1O)OC(=O)OC [Prodrug IV] at or above 10 mg/mL? Satisfied

Is solubility thermodynamic at 72 h for CCCCC[C@H](O)CC[C@@H]1[C@H]2Cc3cccc(OCC(=O)NS(C)(=O)=O)c3C[C@H]2C[C@H]1O [Prodrug XIV, treprostinil methanesulfonamide] at or above 10 mg/mL? Satisfied

Is solubility thermodynamic at 72 h for CCCCC[C@H](O)CC[C@@H]1[C@H]2Cc3cccc(OCC(=O)N[C@@H](C)C(=O)O)c3C[C@H]2C[C@H]1O [Prodrug X, treprostinil alanine amide] at or above 10 mg/mL? Satisfied

Is solubility thermodynamic at 72 h for CCCCC[C@H](O)CC[C@@H]1[C@H]2Cc3cccc(OCC(=O)NC(CC(=O)O)C(=O)O)c3C[C@H]2C[C@H]1O (stereo partly shown) [Prodrug XII, treprostinil aspartic acid amide] at or above 10 mg/mL? Not satisfied

Is solubility thermodynamic at 72 h for CCCCC[C@H](O)CC[C@@H]1[C@H]2Cc3cccc(OCC(=O)N[C@@H](CO)C(=O)O)c3C[C@H]2C[C@H]1O [Prodrug XIII, treprostinil serine amide] at or above 10 mg/mL? Not satisfied

Now for a further molecule.
Is solubility thermodynamic at 72 h for CCCCC[C@H](O)CC[C@@H]1[C@H]2Cc3cccc(OCC(=O)NC(C(=O)O)C(C)C)c3C[C@H]2C[C@H]1O (stereo partly shown) [Prodrug XI, treprostinil valine amide] at or above 10 mg/mL? Satisfied
